Hey, just so you know, these numbers are from patent US20260285850A1.

System: wheat (Triticum aestivum)
test details: Test A preemergence soil spray, visual injury rating 0-100
Type: in vivo
conditions used: 16 g ai/ha, 0 to 100 scale, 10 days
Examples of molecules with documented Wheat plant response rating follow.
Write the value as a bare number.

INSERT INTO results (molecule, target_under_test, measured_quantity, readout_value) VALUES
  ('COC(=O)C1=CCC(NC(=O)C2(C)CN(c3cc(Cl)cc(Cl)c3)C(=O)O2)C1 (centres unmarked) [Compound 148]', 'wheat (Triticum aestivum)', 'Wheat plant response rating', 0),
  ('COC(=O)C1=CCC(NC(=O)C2(C)CN(c3cc(Cl)cc(Cl)c3)C(=O)O2)C1 (centres unmarked) [Compound 149]', 'wheat (Triticum aestivum)', 'Wheat plant response rating', 20),
  ('C=CC1(C(=O)NC2CC(C(=O)OC)C2)CN(c2cc(F)cc(F)c2)C(=O)O1 (centres unmarked)', 'wheat (Triticum aestivum)', 'Wheat plant response rating', 90),
  ('COC(=O)C1CC(NC(=O)C2(C)CN(c3cc(F)cc(F)c3)C(=O)O2)C1 (centres unmarked)', 'wheat (Triticum aestivum)', 'Wheat plant response rating', 0),
  ('CC1(C(=O)NC2CC=C(C(=O)O)C2)CN(c2cc(Cl)cc(Cl)c2)C(=O)O1 (centres unmarked)', 'wheat (Triticum aestivum)', 'Wheat plant response rating', 40);

Provide Wheat plant response rating, system wheat (Triticum aestivum), entry COC(=O)C1=CCC(NC(=O)C2(C)CN(c3cc(F)c(F)c(F)c3)C(=O)O2)C1 (mixture of isomers)
20

Provide Wheat plant response rating, system wheat (Triticum aestivum), entry COC(=O)C1CC(NC(=O)C2(C)CN(c3cc(F)cc(Cl)c3)C(=O)O2)C1 (centres unmarked)
80

Provide Wheat plant response rating, system wheat (Triticum aestivum), entry CC1(C(=O)NC2CC=C(C(=O)NS(=O)(=O)C(C)(C)C)C2)CN(c2cc(F)cc(F)c2)C(=O)O1 (racemic)
0

Provide Wheat plant response rating, system wheat (Triticum aestivum), entry CCOC(=O)C1=CCC(NC(=O)C2(C)CN(c3cc(F)cc(Cl)c3)C(=O)O2)C1 (centres unmarked)
0

Provide Wheat plant response rating, system wheat (Triticum aestivum), entry CC(C)COC(=O)C1=CCC(NC(=O)C2(C)CN(c3cc(F)cc(F)c3)C(=O)O2)C1 (centres unmarked)
30

Provide Wheat plant response rating, system wheat (Triticum aestivum), entry CC(C)COC(=O)C1=CCC(NC(=O)C2(C)CN(c3cc(F)cc(Cl)c3)C(=O)O2)C1 (centres unmarked)
0
